measured.on: T1, CPS-6 H148A/K131D/F132N (Caenorhabditis elegans, UniProt Q95NM6 63-305, H148A;K131D;F132N)
T1 sequence: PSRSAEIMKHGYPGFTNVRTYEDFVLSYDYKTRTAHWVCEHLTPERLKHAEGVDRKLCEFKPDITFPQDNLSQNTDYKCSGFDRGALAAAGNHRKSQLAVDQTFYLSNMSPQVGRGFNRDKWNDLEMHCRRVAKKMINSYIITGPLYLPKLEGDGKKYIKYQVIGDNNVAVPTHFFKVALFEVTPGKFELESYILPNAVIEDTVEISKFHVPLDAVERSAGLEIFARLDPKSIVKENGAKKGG
measurement.notes: filter binding
observable: Kd (nM)

ACGCTGCCGAATTCTGGCGTTAGGAGATACCGATAAGCTTCGGCTTAA (ssDNA) [48-nt ssDNA] = 659
